Target: OC43 Mpro (Human coronavirus OC43)
Test: OC43 Mpro enzymatic assay
Assay type: biochemical, HCoV OC43
Conditions: Table 3
# IC50 annotations
Readout label: IC50

Molecule: CC(C)(C)[C@H](NC(=O)OC1CCOC1)C(=O)N1C[C@H]2[C@@H]([C@H]1C(=O)N[C@H](C#N)C[C@@H]1CC3(CC3)NC1=O)C2(C)C (stereo partly drawn)
Test result: < 2000 nM
//
Molecule: Cc1cc(C(=O)N[C@@H](Cc2cccc3ccccc23)C(=O)N[C@@H](CC2CC2)C(=O)N[C@H](C#N)C[C@@H]2CCNC2=O)no1
Test result: < 2000 nM
//
Molecule: CC1(C)CCC(C[C@@H](C#N)NC(=O)[C@@H]2[C@@H]3[C@H](CN2C(=O)[C@@H](NC(=O)C(F)(F)F)C(C)(C)C)C3(C)C)C(=O)N1 (stereo partly drawn)
Test result: < 2000 nM

* * *

Molecular target: OC43 Mpro (Human coronavirus OC43, UniProt P0C6X6)
Sequence (P0C6X6 3247-3549): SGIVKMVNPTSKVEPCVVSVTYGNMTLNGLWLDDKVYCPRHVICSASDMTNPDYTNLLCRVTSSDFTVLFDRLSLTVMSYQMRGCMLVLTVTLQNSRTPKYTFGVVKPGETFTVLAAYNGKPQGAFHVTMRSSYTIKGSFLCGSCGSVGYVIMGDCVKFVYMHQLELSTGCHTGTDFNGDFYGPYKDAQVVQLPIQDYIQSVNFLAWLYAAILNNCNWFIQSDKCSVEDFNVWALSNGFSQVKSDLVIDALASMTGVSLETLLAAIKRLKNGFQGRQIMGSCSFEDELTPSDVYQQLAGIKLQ
Experiment: OC43 Mpro enzymatic assay
Format: biochemical, HCoV OC43
Conditions: Table 3
Description: Compounds were assayed using standard methods to assess compound activity and IC50. As an exemplary for assessment of the SARS-COV2 Mpro, the C-His6-tagged Mpro (NC_045512) was cloned, expressed in E. coli and purified. […] IC50 values of compounds were calculated with the GraphPad Prism software using the nonlinear regression model of log(inhibitor) vs. response—Variable slope (four parameters). […]
Readings of IC50 for the listed molecules

Molecule: CC(C)(C)C(=O)N[C@H](C(=O)N1C[C@H]2[C@@H]([C@H]1C(=O)N[C@H](C#N)C[C@@H]1CC3(CC3)NC1=O)C2(C)C)C(C)(C)C
IC50: < 2000 nM
--
Molecule: N#C[C@H](C[C@@H]1CCNC1=O)NC(=O)C(CC1CCC(F)(F)CC1)NC(=O)[C@H](Cc1cccc2ccccc12)NC(=O)OCc1ccccc1 (stereo partly drawn)
IC50: < 2000 nM
--
Molecule: N#C[C@H](C[C@@H]1CCCNC1=O)NC(=O)[C@H](CC1CC1)NC(=O)[C@H](Cc1cccc2ccccc12)NC(=O)OCc1ccccc1
IC50: < 2000 nM

* * *

Target: 229E Mpro (Human coronavirus 229E, UniProt P0C6X1)
Sequence (P0C6X1 2966-3267): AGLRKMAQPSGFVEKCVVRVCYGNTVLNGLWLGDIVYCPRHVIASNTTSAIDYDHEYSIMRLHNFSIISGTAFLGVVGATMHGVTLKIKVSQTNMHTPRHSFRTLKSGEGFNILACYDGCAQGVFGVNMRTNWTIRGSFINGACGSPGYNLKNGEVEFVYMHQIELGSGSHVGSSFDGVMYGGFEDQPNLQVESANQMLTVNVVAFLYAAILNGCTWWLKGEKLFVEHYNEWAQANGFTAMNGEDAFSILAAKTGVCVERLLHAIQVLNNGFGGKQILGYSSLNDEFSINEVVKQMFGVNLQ
Test: 229E Mpro enzymatic assay
Type: biochemical, HCoV 229E
Settings: Table 3
pIC50: −log10 of the molar value.
Readout label: pIC50

Compound: C[C@@H](OC1(C)CCC1)[C@H](NC(=O)C(F)(F)F)C(=O)N1C[C@H]2[C@@H]([C@H]1C(=O)N[C@H](C#N)C[C@@H]1CC(C)(C)NC1=O)C2(C)C
Readout label: pIC50
Test result: > 5.70
--
Compound: CC(C)(C)[C@H](NC(=O)C1(C(F)(F)F)CC1)C(=O)N1C[C@H]2[C@@H]([C@H]1C(=O)N[C@H](C#N)C[C@@H]1CC3(CC3)NC1=O)C2(C)C
Readout label: pIC50
Test result: > 5.70
--
Compound: C[C@@H](OC1CC(F)(F)C1)[C@H](NC(=O)C(F)(F)F)C(=O)N1C[C@H]2[C@@H]([C@H]1C(=O)N[C@H](C#N)C[C@@H]1CC(C)(C)NC1=O)C2(C)C
Readout label: pIC50
Test result: > 5.70
--
Compound: CC1(C)CCC(C[C@@H](C#N)NC(=O)[C@@H]2[C@@H]3[C@H](CN2C(=O)[C@@H](NC(=O)C(F)(F)F)C(C)(C)C)C3(C)C)C(=O)N1 (some centres unmarked)
Readout label: pIC50
Test result: 4.52 to 5.00
--
Compound: CN(C(=O)[C@@H](NC(=O)c1cnccn1)C(C)(C)C)[C@@H](CC1CC1)C(=O)N[C@H](C#N)C[C@@H]1CCCNC1=O
Readout label: pIC50
Test result: 5.00 to 5.70

* * *

Here, each record is paired with measured IC50 data.
Biological target: SARS-COV2 Mpro (Severe acute respiratory syndrome coronavirus 2, UniProt P0DTD1)
Test: COVID-19 (nCoV-2019, SARS-CoV2) Mpro enzymatic assay
Assay type: biochemical
Conditions: Table 3; read-out: COVID-19 Mpro IC50
Readout label: IC50

Compound: C[C@@H](OC1CCC1)[C@H](NC(=O)C(F)(F)F)C(=O)N1C[C@H]2[C@@H]([C@H]1C(=O)N[C@H](C#N)C[C@@H]1CC(C)(C)NC1=O)C2(C)C [Compound 307]
System: SARS-COV2 Mpro (Severe acute respiratory syndrome coronavirus 2, UniProt P0DTD1)
Test result: < 2000 nM

Compound: CC1(C)[C@@H]2[C@@H](C(=O)N[C@H](C#N)C[C@@H]3CC4(CC4)NC3=O)N(C(=O)C(NC(=O)C(F)(F)F)C3CCC3)C[C@@H]21 (single isomer, unassigned) [372 Isomer 2]
System: SARS-COV2 Mpro (Severe acute respiratory syndrome coronavirus 2, UniProt P0DTD1)
Test result: < 2000 nM

Compound: CC(C)(C)[C@H](NC(=O)C1(CF)CC1(F)F)C(=O)N1C[C@H]2[C@@H]([C@H]1C(=O)N[C@H](C#N)C[C@@H]1CC3(CC3)NC1=O)C2(C)C (single isomer, unassigned) [292 Isomer 1]
System: SARS-COV2 Mpro (Severe acute respiratory syndrome coronavirus 2, UniProt P0DTD1)
Test result: < 2000 nM

Compound: C[C@@H](OC1(C)CCC1)[C@H](NC(=O)C(F)(F)F)C(=O)N1C[C@H]2[C@@H]([C@H]1C(=O)N[C@H](C#N)C[C@@H]1CC(C)(C)NC1=O)C2(C)C [Compound 308]
System: SARS-COV2 Mpro (Severe acute respiratory syndrome coronavirus 2, UniProt P0DTD1)
Test result: < 2000 nM

Compound: N#C[C@H](C[C@@H]1CCNC1=O)NC(=O)[C@H](CC1CC1)NC(=O)[C@H](Cc1ccc(F)cc1)NC(=O)c1cnccn1 [Compound 125]
System: SARS-COV2 Mpro (Severe acute respiratory syndrome coronavirus 2, UniProt P0DTD1)
Test result: 2000 to 10000 nM

* * *

Recorded pIC50 values for a group of molecules are listed next.
Target: 229E Mpro (Human coronavirus 229E)
Assay: 229E Mpro enzymatic assay
Format: biochemical, HCoV 229E
Details: Table 5
pIC50: −log10 of the molar value.
Readout label: pIC50

Molecule: C[C@@H](OC(C)(C)C)[C@H](NC(=O)C1(C(F)(F)F)CC1)C(=O)N1C[C@H]2[C@@H]([C@H]1C(=O)N[C@H](C#N)C[C@@H]1CC(C)(C)NC1=O)C2(C)C
Test result: > 5.70
//
Molecule: C[C@@H](OC1CCC1)[C@H](NC(=O)C(F)(F)F)C(=O)N1C[C@H]2[C@@H]([C@H]1C(=O)N[C@H](C#N)C[C@@H]1CC3(CC3)NC1=O)C2(C)C
Test result: > 5.70
//
Molecule: C[C@@H](OC1CC1)[C@@H](NC(=O)C(F)(F)F)C(=O)N1C[C@H]2[C@@H]([C@H]1C(=O)N[C@H](C#N)C[C@@H]1CC(C)(C)NC1=O)C2(C)C (single isomer, unassigned) [Compound 298a]
Test result: > 5.70

Origin of values: patent US20240277795A1
